- Tested on: primary human renal proximal tubule epithelial (hPT) cells
- run-description: Nephrotoxicity assay, LDH release
- Format: cell-based
- experimental-parameters: primary human kidney cells
endpoint-name: LDH release CC50

[[record]]
compound = "CNC(C)C1CCC(N)C(OC2C(N)CC(N)C(OC3OCC(C)(O)C(NC)C3O)C2O)O1 (stereo not shown) [Gentamicin, reference compound]"
value = "33 µg/mL"


====

- Test system: primary human renal proximal tubule epithelial (hPT) cells
- run-description: Nephrotoxicity assay, GGT release
- Format: cell-based
- experimental-parameters: primary human kidney cells
Numbered stars: 1 amine (or outer) side, 2 acyl side, 3 side chain; on linkers, the order of the positions; unused ones are H or OH. Bridge positions count the residues as written; N and C are the ends. Square brackets hold non-standard residues; d marks the D form. Peptide text beside a SMILES is read from it. * marks the point of attachment. Benzoyl(4-OPh) = O=C(c1ccc(Oc2ccccc2)cc1)*; Benzoyl(4-Ph) = O=C(c1ccc(-c2ccccc2)cc1)*; X1 = c1ccc(-c2ccc(N*)cc2)cc1; Dab = NCC[C@H](N)C(=O)O; CO = O=C([*:1])[*:2]
endpoint-name: GGT release CC50 (µg/mL)

[[record]]
compound = "CC[C@H](C)CCCCC(=O)N[C@@H](CCN)C(=O)N[C@H](C(=O)N[C@@H](CCN)C(=O)N[C@H]1CCNC(=O)[C@H]([C@@H](C)O)NC(=O)[C@H](CCN)NC(=O)[C@H](CCN)NC(=O)[C@H](CC(C)C)NC(=O)[C@@H](Cc2ccccc2)NC(=O)[C@H](CCN)NC1=O)[C@@H](C)O"
unit_of_measurement = "µg/mL"
result_comparator = "="
value = 177

[[record]]
compound = "CNC(C)C1CCC(N)C(OC2C(N)CC(N)C(OC3OCC(C)(O)C(NC)C3O)C2O)O1 (centres unmarked) [Gentamicin, reference compound]"
unit_of_measurement = "µg/mL"
result_comparator = "="
value = 33

[[record]]
compound = "CC(C)C[C@@H]1NC(=O)[C@@H](Cc2ccccc2)NC(=O)[C@H](CCN)NC(=O)[C@@H](NC(=O)[C@H](CCN)NC(=O)[C@@H](NC(=O)[C@H](CCN)NC(=O)c2ccc(-c3ccccc3)cc2)[C@@H](C)O)CCNC(=O)[C@H]([C@@H](C)O)NC(=O)[C@H](CCN)NC(=O)[C@H](CCN)NC1=O [Compound 10] ({Benzoyl(4-Ph)}-[Dab]T[Dab][Dab][Dab][dF]L[Dab][Dab]T; lactam 4-C)"
unit_of_measurement = "µg/mL"
result_comparator = ">"
value = 128

[[record]]
compound = "CC(C)C[C@@H]1NC(=O)[C@@H](Cc2ccccc2)NC(=O)[C@H](CCN)NC(=O)[C@@H](NC(=O)[C@H](CCN)NC(=O)[C@@H](NC(=O)[C@H](CCN)NC(=O)Nc2ccc(-c3ccccc3)cc2)[C@@H](C)O)CCNC(=O)[C@H]([C@@H](C)O)NC(=O)[C@H](CCN)NC(=O)[C@H](CCN)NC1=O [Compound 15] ({X1-CO}-[Dab]T[Dab][Dab][Dab][dF]L[Dab][Dab]T; lactam 4-C)"
unit_of_measurement = "µg/mL"
result_comparator = ">"
value = 128

[[record]]
compound = "CC(C)C[C@@H]1NC(=O)[C@@H](Cc2ccccc2)NC(=O)[C@H](CCN)NC(=O)[C@@H](NC(=O)[C@H](CCN)NC(=O)[C@@H](NC(=O)[C@H](CCN)NC(=O)c2ccc(Oc3ccccc3)cc2)[C@@H](C)O)CCNC(=O)[C@H]([C@@H](C)O)NC(=O)[C@H](CCN)NC(=O)[C@H](CCN)NC1=O [Compound 14] ({Benzoyl(4-OPh)}-[Dab]T[Dab][Dab][Dab][dF]L[Dab][Dab]T; lactam 4-C)"
unit_of_measurement = "µg/mL"
result_comparator = ">"
value = 128


====

Property: LDH release CC50; scope: individual compounds
- Test system: primary human renal proximal tubule epithelial (hPT) cells
- run-description: Nephrotoxicity assay, LDH release
- Assay type: cell-based
- experimental-parameters: primary human kidney cells
Numbered stars: 1 amine (or outer) side, 2 acyl side, 3 side chain; on linkers, the order of the positions; unused ones are H or OH. Bridge positions count the residues as written; N and C are the ends. Square brackets hold non-standard residues; d marks the D form. Peptide text beside a SMILES is read from it. * marks the point of attachment. Benzoyl(4-OPh) = O=C(c1ccc(Oc2ccccc2)cc1)*; Benzoyl(4-Ph) = O=C(c1ccc(-c2ccccc2)cc1)*; X1 = c1ccc(-c2ccc(N*)cc2)cc1; Dab = NCC[C@H](N)C(=O)O; CO = O=C([*:1])[*:2]
endpoint-name: LDH release CC50

[[record]]
compound = "CC(C)C[C@@H]1NC(=O)[C@@H](Cc2ccccc2)NC(=O)[C@H](CCN)NC(=O)[C@@H](NC(=O)[C@H](CCN)NC(=O)[C@@H](NC(=O)[C@H](CCN)NC(=O)c2ccc(-c3ccccc3)cc2)[C@@H](C)O)CCNC(=O)[C@H]([C@@H](C)O)NC(=O)[C@H](CCN)NC(=O)[C@H](CCN)NC1=O [Compound 10] ({Benzoyl(4-Ph)}-[Dab]T[Dab][Dab][Dab][dF]L[Dab][Dab]T; lactam 4-C)"
value = ">128 µg/mL"

[[record]]
compound = "CC[C@H](C)CCCCC(=O)N[C@@H](CCN)C(=O)N[C@H](C(=O)N[C@@H](CCN)C(=O)N[C@H]1CCNC(=O)[C@H]([C@@H](C)O)NC(=O)[C@H](CCN)NC(=O)[C@H](CCN)NC(=O)[C@H](CC(C)C)NC(=O)[C@@H](Cc2ccccc2)NC(=O)[C@H](CCN)NC1=O)[C@@H](C)O"
value = "23 µg/mL"

[[record]]
compound = "CC(C)C[C@@H]1NC(=O)[C@@H](Cc2ccccc2)NC(=O)[C@H](CCN)NC(=O)[C@@H](NC(=O)[C@H](CCN)NC(=O)[C@@H](NC(=O)[C@H](CCN)NC(=O)c2ccc(Oc3ccccc3)cc2)[C@@H](C)O)CCNC(=O)[C@H]([C@@H](C)O)NC(=O)[C@H](CCN)NC(=O)[C@H](CCN)NC1=O [Compound 14] ({Benzoyl(4-OPh)}-[Dab]T[Dab][Dab][Dab][dF]L[Dab][Dab]T; lactam 4-C)"
value = ">128 µg/mL"

[[record]]
compound = "CC(C)C[C@@H]1NC(=O)[C@@H](Cc2ccccc2)NC(=O)[C@H](CCN)NC(=O)[C@@H](NC(=O)[C@H](CCN)NC(=O)[C@@H](NC(=O)[C@H](CCN)NC(=O)Nc2ccc(-c3ccccc3)cc2)[C@@H](C)O)CCNC(=O)[C@H]([C@@H](C)O)NC(=O)[C@H](CCN)NC(=O)[C@H](CCN)NC1=O [Compound 15] ({X1-CO}-[Dab]T[Dab][Dab][Dab][dF]L[Dab][Dab]T; lactam 4-C)"
value = ">128 µg/mL"


====

MIC values, listed per item
- Test system: K. pneumoniae CI 138-16357-20362, PmxR
- experimental-parameters: MIC K. pneumoniae CI 138-16357-20362, PmxR (µg/mL)
Numbered stars: 1 amine (or outer) side, 2 acyl side, 3 side chain; on linkers, the order of the positions; unused ones are H or OH. Bridge positions count the residues as written; N and C are the ends. Square brackets hold non-standard residues; d marks the D form. Peptide text beside a SMILES is read from it. * marks the point of attachment. Benzoyl(4-OPh) = O=C(c1ccc(Oc2ccccc2)cc1)*; Gly(octyl) = CCCCCCCC[C@H](N)C(=O)O; Octanoyl(6-Me) = CCC(C)CCCCC(=O)*; NH(2-ClPh) = Clc1ccccc1N*; dDab = NCC[C@@H](N)C(=O)O; hSer = N[C@@H](CCO)C(=O)O; Octanoyl = CCCCCCCC(=O)*; Dab = NCC[C@H](N)C(=O)O; CO = O=C([*:1])[*:2]
endpoint-name: MIC

[[record]]
compound = "CCCCCCCC(=O)N[C@@H](CCN)C(=O)N[C@H](C(=O)N[C@@H](CCN)C(=O)N[C@H]1CCNC(=O)[C@H]([C@@H](C)O)NC(=O)[C@H](CCN)NC(=O)[C@H](CCN)NC(=O)[C@H](CC(C)C)NC(=O)[C@@H](Cc2ccccc2)NC(=O)[C@H](CCO)NC1=O)[C@@H](C)O [Compound 33] (Octanoyl-[Dab]T[Dab][Dab][hSer][dF]L[Dab][Dab]T; lactam 4-C)"
experimental_target = "K. pneumoniae CI 138-16357-20362, PmxR"
value = "> 32 µg/mL"

[[record]]
compound = "CC(C)C[C@@H]1NC(=O)[C@@H](Cc2ccccc2)NC(=O)[C@H](CCN)NC(=O)[C@@H](NC(=O)[C@@H](CCN)NC(=O)[C@@H](NC(=O)[C@H](CCN)NC(=O)Nc2ccccc2Cl)[C@@H](C)O)CCNC(=O)[C@H]([C@@H](C)O)NC(=O)[C@H](CCN)NC(=O)[C@H](CCN)NC1=O [Compound 16] ({NH(2-ClPh)-CO}-[Dab]T[dDab][Dab][Dab][dF]L[Dab][Dab]T; lactam 4-C)"
experimental_target = "K. pneumoniae CI 138-16357-20362, PmxR"
value = "> 32 µg/mL"

[[record]]
compound = "CCCCCCCC[C@@H]1NC(=O)[C@@H](Cc2ccccc2)NC(=O)[C@H](CCN)NC(=O)[C@@H](NC(=O)[C@H](CCN)NC(=O)[C@@H](NC(=O)[C@H](CCN)NC(=O)CCCCCCC)[C@@H](C)O)CCNC(=O)[C@H]([C@@H](C)O)NC(=O)[C@H](CCN)NC(=O)[C@H](CCN)NC1=O (Octanoyl-[Dab]T[Dab][Dab][Dab][dF][Gly(octyl)][Dab][Dab]T; lactam 4-C)"
experimental_target = "K. pneumoniae CI 138-16357-20362, PmxR"
value = "32 µg/mL"

[[record]]
compound = "CC(C)C[C@@H]1NC(=O)[C@@H](Cc2ccccc2)NC(=O)[C@H](CCN)NC(=O)[C@@H](NC(=O)[C@H](CCN)NC(=O)[C@@H](NC(=O)[C@H](CCN)NC(=O)c2ccc(Oc3ccccc3)cc2)[C@@H](C)O)CCNC(=O)[C@H]([C@@H](C)O)NC(=O)[C@H](CCN)NC(=O)[C@H](CCN)NC1=O [Compound 14] ({Benzoyl(4-OPh)}-[Dab]T[Dab][Dab][Dab][dF]L[Dab][Dab]T; lactam 4-C)"
experimental_target = "K. pneumoniae CI 138-16357-20362, PmxR"
value = "> 32 µg/mL"

[[record]]
compound = "CCC(C)CCCCC(=O)N[C@@H](CCN)C(=O)N[C@H](C(=O)N[C@@H](CCN)C(=O)N[C@H]1CCNC(=O)[C@H]([C@@H](C)O)NC(=O)[C@H](CCN)NC(=O)[C@H](CCN)NC(=O)[C@H](CC(C)C)NC(=O)[C@@H](CC(C)C)NC(=O)[C@H](CCN)NC1=O)[C@@H](C)O (stereo partly drawn) ({Octanoyl(6-Me)}-[Dab]T[Dab][Dab][Dab][dL]L[Dab][Dab]T; lactam 4-C)"
experimental_target = "K. pneumoniae CI 138-16357-20362, PmxR"
value = "64 µg/mL"

[[record]]
compound = "CCC(C)CCCCC(=O)N[C@@H](CCN)C(=O)N[C@H](C(=O)N[C@@H](CCN)C(=O)N[C@H]1CCNC(=O)[C@H]([C@@H](C)O)NC(=O)[C@H](CCN)NC(=O)[C@H](CCN)NC(=O)[C@H](CC(C)C)NC(=O)[C@@H](Cc2ccccc2)NC(=O)[C@H](CCN)NC1=O)[C@@H](C)O (some centres unmarked)"
experimental_target = "K. pneumoniae CI 138-16357-20362, PmxR"
value = "64 µg/mL"

[[record]]
compound = "CCCCCCCC(=O)N[C@@H](CCN)C(=O)N[C@H](C(=O)N[C@H](CO)C(=O)N[C@H]1CCNC(=O)[C@H]([C@@H](C)O)NC(=O)[C@H](CCN)NC(=O)[C@H](CCN)NC(=O)[C@H](CC(C)C)NC(=O)[C@@H](Cc2ccccc2)NC(=O)[C@H](CCN)NC1=O)[C@@H](C)O [Compound 37] (Octanoyl-[Dab]T[dS][Dab][Dab][dF]L[Dab][Dab]T; lactam 4-C)"
experimental_target = "K. pneumoniae CI 138-16357-20362, PmxR"
value = "> 32 µg/mL"

[[record]]
compound = "CC(C)C[C@@H]1NC(=O)[C@@H](Cc2ccccc2)NC(=O)[C@H](CCN)NC(=O)[C@@H](NC(=O)[C@H](CCN)NC(=O)[C@@H](NC(=O)[C@H](CCN)NC(=O)Nc2ccccc2Cl)[C@@H](C)O)CCNC(=O)[C@H]([C@@H](C)O)NC(=O)[C@H](CCN)NC(=O)[C@H](CCN)NC1=O [Compound 13] ({NH(2-ClPh)-CO}-[Dab]T[Dab][Dab][Dab][dF]L[Dab][Dab]T; lactam 4-C)"
experimental_target = "K. pneumoniae CI 138-16357-20362, PmxR"
value = "> 32 µg/mL"

[[record]]
compound = "CCCCCCCC(=O)N[C@@H](CCN)C(=O)N[C@H](C(=O)N[C@@H](CCN)C(=O)N[C@H]1CCNC(=O)[C@H]([C@@H](C)O)NC(=O)[C@H](CCN)NC(=O)[C@H](CCNC(=O)[C@@H](N)CCC(=O)O)NC(=O)[C@H](CC(C)C)NC(=O)[C@@H](Cc2ccccc2)NC(=O)[C@H](CCN)NC1=O)[C@@H](C)O [Compound 23] (Octanoyl-[Dab]T[Dab][Dab][Dab][dF]L[Dab](Glu)[Dab]T; lactam 4-C)"
experimental_target = "K. pneumoniae CI 138-16357-20362, PmxR"
value = "> 32 µg/mL"

[[record]]
compound = "CCCCCCCC(=O)N[C@H](C(=O)N[C@@H](CCN)C(=O)N[C@H]1CCNC(=O)[C@H]([C@@H](C)O)NC(=O)[C@H](CCN)NC(=O)[C@H](CCN)NC(=O)[C@H](CC(C)C)NC(=O)[C@@H](Cc2ccccc2)NC(=O)[C@H](CCN)NC1=O)[C@@H](C)O [Compound 12] (Octanoyl-T[Dab][Dab][Dab][dF]L[Dab][Dab]T; lactam 3-C)"
experimental_target = "K. pneumoniae CI 138-16357-20362, PmxR"
value = "> 32 µg/mL"

[[record]]
compound = "CCCCCCCC(=O)N[C@@H](CCN)C(=O)N[C@H](C(=O)N[C@@H](CCN)C(=O)N[C@H]1CCNC(=O)[C@H]([C@@H](C)O)NC(=O)[C@H](CCN)NC(=O)[C@H](CCCNC(=N)N)NC(=O)[C@H](CC(C)C)NC(=O)[C@@H](Cc2ccccc2)NC(=O)[C@H](CCN)NC1=O)[C@@H](C)O [Compound 26]"
experimental_target = "K. pneumoniae CI 138-16357-20362, PmxR"
value = "> 32 µg/mL"

